// data source = PubChem BioAssay (NCI)

Form field: growth (one value per entry).
- Tested on: BT-549 breast
- EXPERIMENTAL_PROTOCOL: NCI-60 one-dose screen, 48 h (100 = growth as untreated, 0 = no growth, -100 = all killed)
- MEASUREMENT_CONTEXT: 10 µM unless noted
The panel holds about 83,000 compounds, 20% with a hit somewhere; the sample as a whole holds those more often.
Report as a plain number; the unit % is understood.

Worked cases, answers included:
COMPOUND: Clc1cc(Cl)cc(-c2ccc(-c3ccc(/C=N/NC4=NCCN4)cc3)s2)c1
growth (%): 94.3
--
COMPOUND: N[C@@H]1CCN(C(=O)c2cc3cc(Cl)c(F)c(F)c3[nH]2)C1
growth (%): 1.7
--
COMPOUND: C=C(C)[C@@H]1C[C@@H]2Cc3cc(Cl)ccc3N1O2
growth (%): 99.6
--
COMPOUND: O=C(O)c1cn(C2CC2)c2cc(N3CCN(C(=O)/C=C/c4ccc(Cl)cc4)CC3)c(F)cc2c1=O
growth (%): 50.1
--
COMPOUND: O=C(Nc1ccncc1)C(=O)c1cn(S(=O)(=O)c2ccc(Cl)cc2)c2ccccc12
growth (%): 39.2

State its growth on BT-549 breast: O=C(/C=C/c1c[nH]c2ccccc12)c1ccc(O)c(CN2CCN(c3ccc(F)cc3)CC2)c1 99.2

State its growth on BT-549 breast: Cn1ncc2c(Sc3ccc(Cl)cc3)ncnc21 62.1

State its growth on BT-549 breast: CN(C)c1oc(C2OC2c2ccccc2)nc1C#N (stereo not given) 95.6

State its growth on BT-549 breast: O=C(CCl)N(C1CCCCC1)C1CCCCC1 97.4

State its growth on BT-549 breast: C=C1C(=O)O[C@@H]2[C@@H]3O[C@@](C)(CC/C=C(\C)CCC[C@@H]2C)[C@H](O)C[C@@H]13 19.1

----------
- Tested on: CCRF-CEM leukemia
- EXPERIMENTAL_PROTOCOL: NCI-60 one-dose screen, 48 h
- MEASUREMENT_CONTEXT: 10 µM unless noted
Compounds without any hit were thinned out: in the full panel of roughly 83,000, 20% have a hit. Activity calls are given as the source filed them. How the source made its calls: active means growth percent below 10; inactive means the rest.
Return exactly one item of true for active, false for inactive

MOLECULE: Clc1cc2c(nn1)Nc1ccccc1S2
SYSTEM_NAME: CCRF-CEM leukemia
LABEL_VALUE: false

MOLECULE: COc1ccc2c(c1)[nH]c(=O)c1c3cccc(F)c3cn21
SYSTEM_NAME: CCRF-CEM leukemia
LABEL_VALUE: true

MOLECULE: O=S(=O)(NCCCNc1nccc(-n2ccc3cccnc32)n1)c1cccc(C(F)(F)F)c1
SYSTEM_NAME: CCRF-CEM leukemia
LABEL_VALUE: false

Here is another molecule to look at.
Identify the outcome logged in this assay for the molecule shown: N/C(=N\C(N)=N\c1nc2ccccc2s1)c1ccncc1 false

----------
- Tested on: 786-0 renal
- EXPERIMENTAL_PROTOCOL: NCI-60 one-dose screen, 48 h
- MEASUREMENT_CONTEXT: 10 µM unless noted
Compounds without any hit were thinned out: in the full panel of roughly 83,000, 20% have a hit. The source made the active and inactive calls. The calls were made as follows: active = growth percent below 10; inactive = the rest.
Return exactly one item of active, inactive

The examples below pair each entry with its known result.
COMPOUND: C=CCSc1n[nH]c(-c2cccs2)n1
LABEL_VALUE: inactive
--
COMPOUND: COc1ccc(CCNC2=CC(=O)CCC2)cc1OC
LABEL_VALUE: inactive
--
COMPOUND: Cc1ccc(-c2nc(C#N)c(S(=O)(=O)n3nc(-c4ccccc4)cc3N)o2)cc1
LABEL_VALUE: inactive
--
COMPOUND: CC(C)C1=CC2=C(C=O)C[C@@H]3[C@](C)(CCC[C@@]3(C)C(=O)OCC#CCN3CCCC3)[C@H]2CC1
LABEL_VALUE: inactive
--
COMPOUND: COc1ccc(-c2nc(SCCC(C)C)nc(Nc3ccc(F)c(Cl)c3)c2C#N)cc1
LABEL_VALUE: inactive

Identify the outcome logged in this assay for the compound shown: O=c1[nH]c(NCc2ccccc2)nc2nc(Nc3ccc(NC(=S)Nc4ccccc4)cc3)nc(-c3ccc(O)cc3O)c12 inactive

Identify the outcome logged in this assay for the compound shown: COc1ccc(Nc2nc(N)nc3c2CCN(Cc2ccc(OC)cc2OC)C3=O)cc1 inactive

Identify the outcome logged in this assay for the compound shown: CC(C)(C)Nc1c(-c2cccs2)nc2ncccn12 inactive

Identify the outcome logged in this assay for the compound shown: COc1cc(/C=C/C(=O)c2ccc(Nc3ncnc4cc(OC)c(OC)cc34)cc2)cc(OC)c1 inactive
